meta.source: paper PMC12040169

experiment: in vitro; conditions: human, hela cells, % viability
MEASUREMENT TYPE: viability at 28.5 h, 10 µM
Show the value, then the unit it is measured in.

- MOLECULE: "CC(C)(C)OC(=O)N1CCN(C(=O)c2cc(-c3cccnc3)on2)CC1"
  viability at 28.5 h, 10 µM: "88.7%"
- MOLECULE: "Cc1csc2c(NC(C)C)ncnc12"
  viability at 28.5 h, 10 µM: "95.7%"
- MOLECULE: "O=C(COc1ccc([N+](=O)[O-])cc1)Nc1ccc2oc(-c3ccc(Br)cc3)nc2c1"
  viability at 28.5 h, 10 µM: "106%"
- MOLECULE: "NS(=O)(=O)c1ccc(CCNc2ncnc3c2c(-c2ccccc2)cn3-c2ccc(F)cc2)cc1"
  viability at 28.5 h, 10 µM: "92%"
- MOLECULE: "Cc1ccc(S(N)(=O)=O)cc1NC(=O)c1ccc(S(=O)(=O)N(C)C)cc1"
  viability at 28.5 h, 10 µM: "103%"
- MOLECULE: "COc1ccc2ncc3c(-c4ccccc4)n[nH]c3c2c1"
  viability at 28.5 h, 10 µM: "93.3%"

Report measured viability at 28.5 h, 10 µM; entry is Cc1ccc2cc(CN(Cc3ccc(N(C)C)cc3)C(=O)NC3CCCCC3)c(=O)[nH]c2c1C
97.3%

Report measured viability at 28.5 h, 10 µM; entry is Cc1cc(OC(C)C(=O)Nc2ccccc2C(=O)N2CCCC2)ccc1Cl (stereo not drawn)
94.3%

Report measured viability at 28.5 h, 10 µM; entry is O=C(O)c1cccnc1SC1CC(=O)N(c2ccc(F)cc2)C1=O (stereo not drawn)
110%
